Values were extracted from paper PMC6152211.

Test method notes: Herbal drug pharmacokinetic interaction study of sorafenib in rat plasma (Part A)
Type: in vivo, Male Sprague-Dawley rats
Condition info: male, Sprague-Dawley, rat, plasma, po, 10 mg/kg, Group A3: LDXGT formulation 1 g/kg/day p.o. for 5 consecutive days, then single sorafenib 10 mg/kg p.o.; rat plasma; mean ± SD, n = 6
Endpoint name: half-life (h)
Give the number; h is assumed, so skip it.

Tell me its half-life given CNC(=O)c1cc(Oc2ccc(NC(=O)Nc3ccc(Cl)c(C(F)(F)F)c3)cc2)ccn1 [sorafenib, Sorafenib] as the entry. 10.8

====

Test method notes: Herbal drug pharmacokinetic interaction study of sorafenib in rat plasma (Part A)
Type: in vivo, Male Sprague-Dawley rats
Condition info: male, Sprague-Dawley, rat, plasma, po, 10 mg/kg, Group A2: sorafenib 10 mg/kg, p.o. alone; compared to Group A1 (3 mg/kg, i.v.); rat; mean ± SD, n = 6; read-out: F (oral bioavailability)
Endpoint name: bioavailability (%)
Give the number; % is assumed, so skip it.

Tell me its bioavailability given CNC(=O)c1cc(Oc2ccc(NC(=O)Nc3ccc(Cl)c(C(F)(F)F)c3)cc2)ccn1 as the entry. 56
